- System: RSV strain A2
- Test method notes: RSV antiviral cytoprotection assay in Hep2 cells (96-well and 384-well format, Cell TiterGlo read-out)
- Format: cell-based, Respiratory Syncytial Virus (RSV)
- Test settings: human respiratory syncytial virus, HEp-2, 0.5 uM; RSV-induced cytopathic effect in Hep2 cells; calculated from fitted dose response curve, normalized to 0% and 100%
Readout: inhibition at 0.5 µM (%)

# Molecule, Readout, Endpoint unit, Readout value
data = [
    ("Cc1ccc(C(=O)N2CCCC[C@H]2c2cc3nc(N4CC[C@H](N)C4)c(C)cn3n2)cc1O [Compound 294]", "inhibition at 0.5 µM", "%", 14),
    ("Cc1cn2nc([C@@H]3CCCCN3C(=O)c3cc(Cl)ccc3NS(C)(=O)=O)cc2nc1N1CC(N)C(C#N)C1 (stereo partly shown) [Compound 186]", "inhibition at 0.5 µM", "%", 100),
    ("Cc1cc(NS(C)(=O)=O)c(C(=O)N2CCCC[C@H]2c2cc3nc(C4CC4)cc(C)n3n2)s1 [Compound 111]", "inhibition at 0.5 µM", "%", 95),
    ("Cc1cn2nc([C@@H]3CCCCN3C(=O)c3ccc(-c4ccccc4)cc3)cc2nc1N1CC[C@H](N)C1 [Compound 406]", "inhibition at 0.5 µM", "%", 98),
]

* * *

We begin with a simple list: items and their reported inhibition at 0.5 µM.
- Test system: RSV strain A2
- Test method notes: RSV antiviral cytoprotection assay in Hep2 cells (96-well and 384-well format, Cell TiterGlo read-out)
- Assay type: cell-based, Respiratory Syncytial Virus (RSV)
- Test settings: human respiratory syncytial virus, HEp-2, 0.5 uM; RSV-induced cytopathic effect in Hep2 cells; calculated from fitted dose response curve, normalized to 0% and 100%

# Compound, Target system, Endpoint unit, inhibition at 0.5 µM
records = [
    ("Cc1ccc(NS(C)(=O)=O)c(C(=O)N2CCCC[C@H]2c2cc3nc(C)c(C)c(C4CC4)n3n2)c1 [Compound 87]", "RSV strain A2", "%", 84),
    ("Cc1ccc(C(=O)N2CCCC[C@H]2c2cc3nc(N4CC[C@H](N)C4)c(C)cn3n2)c(F)c1 [Compound 298]", "RSV strain A2", "%", 21),
    ("Cc1cc(C(=O)N2CCCC[C@H]2c2cc3nc(N4CC[C@H](N)C4)c(C)cn3n2)n(C(F)F)n1 [Compound 354]", "RSV strain A2", "%", 87),
    ("Cc1cn2nc([C@@H]3CCCCN3C(=O)c3cc(Cl)ccc3NS(C)(=O)=O)cc2nc1N(C)CCO [Compound 150]", "RSV strain A2", "%", 97),
    ("Cc1cc(C(=O)N2CCCC[C@H]2c2cc3nc(N4CC[C@H](N)C4)c(C)cn3n2)on1 [Compound 266]", "RSV strain A2", "%", 100),
    ("Cc1cn2nc([C@@H]3CCCCN3C(=O)c3cc(Cl)ccc3NS(C)(=O)=O)cc2nc1NC(=N)N [Compound 139]", "RSV strain A2", "%", 99),
    ("Cc1cn2nc([C@@H]3CC[C@H](C)CN3C(=O)c3cc(Cl)ccc3NS(C)(=O)=O)cc2nc1N1CCC1 [Compound 138]", "RSV strain A2", "%", 100),
    ("Cc1cccc(C(=O)N2CCCC[C@H]2c2cc3nc(N4CC[C@H](N)C4)c(C)cn3n2)c1 [Compound 157]", "RSV strain A2", "%", 100),
    ("Cc1ccnc(C(=O)N2CCCC[C@H]2c2cc3nc(N4CC[C@H](N)C4)c(C)cn3n2)c1 [Compound 272]", "RSV strain A2", "%", 100),
    ("CS(=O)(=O)Nc1ccc(Cl)cc1C(=O)N1CCCC[C@H]1c1cc2nc(N3CC[C@@H](C#N)C3)cc(N3CCOCC3)n2n1 [Compound 228]", "RSV strain A2", "%", 100),
    ("CCCn1cc(Cl)c(C(=O)N2CCCC[C@H]2c2cc3nc(N4CC[C@H](N)C4)c(C)cn3n2)n1 [Compound 381]", "RSV strain A2", "%", 100),
    ("C[C@H]1CN(c2cc(N3CCC3)nc3cc([C@@H]4CCCCN4C(=O)c4cc(Cl)ccc4NS(C)(=O)=O)nn23)CCN1 [Compound 155]", "RSV strain A2", "%", 100),
    ("Cc1ccc(NS(C)(=O)=O)c(C(=O)N2CCC(C)CC2c2cc3[nH]c(C)c(C)c(=O)n3n2)c1 (stereo not shown) [Compound 89]", "RSV strain A2", "%", 100),
    ("Cc1cc(C2CC2)nc2cc([C@@H]3CCCCN3C(=O)C(c3ccccc3)N(C)C)nn12 (stereo partly shown) [Compound 239]", "RSV strain A2", "%", 36),
    ("CN1CCN(c2cc(N3CC(O)C3)nc3cc([C@@H]4CCCCN4C(=O)c4cc(Cl)ccc4NS(C)(=O)=O)nn23)CC1 [Compound 54]", "RSV strain A2", "%", 100),
    ("Cc1nc2cc([C@@H]3CCCCN3C(=O)c3cc(Cl)ccc3NS(C)(=O)=O)nn2c(N(C)C)c1C [Compound 99]", "RSV strain A2", "%", 99),
    ("Cc1ccc(NS(C)(=O)=O)c(C(=O)N2CCCC[C@H]2c2cc3nc(C)c(C)c(N4CCOCC4)n3n2)c1 [Compound 104]", "RSV strain A2", "%", 100),
    ("Cc1cc(C)cc(C(=O)N2CCCC[C@H]2c2cc3nc(N4CC[C@H](N)C4)c(C)cn3n2)c1 [Compound 160]", "RSV strain A2", "%", 100),
    ("CN1CCN(c2cc(N3CCC3)nc3cc([C@@H]4CCCCN4C(=O)c4cc(Cl)ccc4NS(C)(=O)=O)nn23)CC1 [Compound 165]", "RSV strain A2", "%", 100),
    ("CS(=O)(=O)Nc1ccc(Cl)cc1C(=O)N1CCCC[C@H]1c1cc2nc(N3CC(O)C3)cc(N3CCNCC3)n2n1 [Compound 50]", "RSV strain A2", "%", 100),
    ("Cc1cc(N2CC(F)C2)nc2cc([C@@H]3CCCCN3C(=O)c3cc(Cl)ccc3NS(C)(=O)=O)nn12 [Compound 47]", "RSV strain A2", "%", 100),
    ("CS(=O)(=O)Nc1ccc(Cl)cc1C(=O)N1CCCC[C@H]1c1cc2nc(N3CCC3)cc(N3CCOCC3)n2n1 [Compound 67]", "RSV strain A2", "%", 100),
]
